Values were extracted from ChEMBL document CHEMBL3988442.

Test system: Mycobacterium tuberculosis
ASSAY_OVERVIEW: Cornell M. t heat shock assay; note: in the data most compounds retested in dose-response had high values
Format: functional, organism-based
Parameters: dose or concentration left out as unconfirmed
The campaign covered roughly 69,000 compounds. About 950 (1.4%) showed an effect of 50% or more. This excerpt belongs to a sample that is enriched for strong results.
ASSAY_ENDPOINT: Percent Effect (%)
State just the number; it will be interpreted in %.

Please review the following examples before continuing.
{"COMPOUND": "Cc1ccc(-c2cn[nH]c2C2CCCN(c3ccnc(C)n3)C2)cc1 (stereo unspecified)", "Percent Effect [%]": 19.62}
{"COMPOUND": "Cc1ccc2[nH]c(CN(C)Cc3n[nH]c4c3CCC4)nc2c1", "Percent Effect [%]": 98.03}
{"COMPOUND": "Cc1ccc2[nH]c(CN(C)Cc3ccccc3C(=O)O)nc2c1", "Percent Effect [%]": -3.354}
{"COMPOUND": "COc1nc2cc(C)ccc2cc1CN(C)Cc1n[nH]c2c1CCCC2", "Percent Effect [%]": 2.274}
{"COMPOUND": "Cc1ccc2nc(CN(C)Cc3[nH]nc4c3CCC4)[nH]c2c1C", "Percent Effect [%]": 98.38}

State, in one line, measured Percent Effect of COCCn1ccc2cc(C(=O)N3CCN(S(C)(=O)=O)CC3)ccc21 72.24

---

Tested on: Mycobacterium tuberculosis
ASSAY_OVERVIEW: Cornell M. t heat shock assay; note: in the data most compounds retested in dose-response had high values
Assay type: functional, organism-based
Set-up: dose or concentration left out as unconfirmed
The whole screen tested about 69,000 compounds, of which about 950 (1.4%) showed an effect of 50% or more. This excerpt belongs to a sample that is enriched for strong results.
ASSAY_ENDPOINT: Percent Effect (%)
State just the number; it will be interpreted in %.

Please review the following examples before continuing.
{"MOLECULE": "COc1cccc(-c2nc(CNCCc3cccnc3)cs2)c1", "UNITS_LABEL": "%", "Percent Effect": -0.6336}
{"MOLECULE": "c1ccc(-c2nc(CNCCn3cccn3)cs2)nc1", "UNITS_LABEL": "%", "Percent Effect": -25.33}
{"MOLECULE": "COc1ccc(CN2CCC3(CC2)CCN(CC(=O)N(C)C)C3=O)cc1.O=C(O)C(F)(F)F", "UNITS_LABEL": "%", "Percent Effect": 1.282}
{"MOLECULE": "Fc1ccccc1-c1nc(CNCCn2cccn2)cs1", "UNITS_LABEL": "%", "Percent Effect": 20.44}
{"MOLECULE": "c1csc(-c2nc(CNCCn3cccn3)cs2)c1", "UNITS_LABEL": "%", "Percent Effect": 10.7}

State, in one line, measured Percent Effect of CCN(CC)Cc1ccc(C(=O)N2CCN(CC(C)O)CC2)o1 (stereo unspecified) 61.39

State, in one line, measured Percent Effect of Clc1ccccc1-c1nc(CNCCn2cccn2)cs1 54.38

State, in one line, measured Percent Effect of c1cnn(CCNCc2csc(-c3ccsc3)n2)c1 52.72

---

Tested on: Mycobacterium tuberculosis
ASSAY_OVERVIEW: Cornell M. t heat shock assay; note: in the data most compounds retested in dose-response had high values
Type: functional, organism-based
Parameters: dose or concentration left out as unconfirmed
Out of some 69,000 compounds screened, about 950 (1.4%) showed an effect of 50% or more. Only a selection was taken, and strong results are over-represented in it overall.
ASSAY_ENDPOINT: Percent Effect (%)
State just the number; it will be interpreted in %.

{"COMPOUND": "CCN(CC)Cc1cn2c(n1)CN(Cc1c(C)noc1C)CC2.O=C(O)C(F)(F)F.O=C(O)C(F)(F)F", "TARGET_ENTITY": "Mycobacterium tuberculosis", "ASSAY_ENDPOINT": "Percent Effect", "UNITS_LABEL": "%", "DATA_VALUE": -4.28}
{"COMPOUND": "CC(C)=CCN1C(=O)[C@H]2CC[C@@H]1CN(C(=O)CCc1n[nH]c(C)c1C)C2", "TARGET_ENTITY": "Mycobacterium tuberculosis", "ASSAY_ENDPOINT": "Percent Effect", "UNITS_LABEL": "%", "DATA_VALUE": -27.57}
{"COMPOUND": "CN(C)c1ncnc2c1CCN(CC1CCCC1)CC2.O=C(O)C(F)(F)F", "TARGET_ENTITY": "Mycobacterium tuberculosis", "ASSAY_ENDPOINT": "Percent Effect", "UNITS_LABEL": "%", "DATA_VALUE": 2.211}
{"COMPOUND": "NCC(c1ccccc1)N1CCc2sccc2C1 (stereo not given)", "TARGET_ENTITY": "Mycobacterium tuberculosis", "ASSAY_ENDPOINT": "Percent Effect", "UNITS_LABEL": "%", "DATA_VALUE": 4.411}
{"COMPOUND": "CN[C@H]1CC[C@]2(CC1)CNC(=O)c1cc(C)ccc1O2", "TARGET_ENTITY": "Mycobacterium tuberculosis", "ASSAY_ENDPOINT": "Percent Effect", "UNITS_LABEL": "%", "DATA_VALUE": -8.947}
{"COMPOUND": "CC(C)c1ccc(C(CN)N2CCc3sccc3C2)cc1 (stereo not given)", "TARGET_ENTITY": "Mycobacterium tuberculosis", "ASSAY_ENDPOINT": "Percent Effect", "UNITS_LABEL": "%", "DATA_VALUE": 92.4}
{"COMPOUND": "O=C(O)C(F)(F)F.c1ccc(CN2CCc3ncnc(C4CC4)c3CC2)cc1", "TARGET_ENTITY": "Mycobacterium tuberculosis", "ASSAY_ENDPOINT": "Percent Effect", "UNITS_LABEL": "%", "DATA_VALUE": -16.81}
{"COMPOUND": "COCCNc1nc(-n2nc(C)cc2C)nc2sc3c(c12)CCCC3", "TARGET_ENTITY": "Mycobacterium tuberculosis", "ASSAY_ENDPOINT": "Percent Effect", "UNITS_LABEL": "%", "DATA_VALUE": 40.33}
{"COMPOUND": "CN(C)C(=O)[C@H]1C[C@@H]2CCN(Cc3ccoc3)C[C@@H]2O1.O=C(O)C(F)(F)F", "TARGET_ENTITY": "Mycobacterium tuberculosis", "ASSAY_ENDPOINT": "Percent Effect", "UNITS_LABEL": "%", "DATA_VALUE": 36.25}

State, in one line, measured Percent Effect of Cc1nn(C)c(Cl)c1C1CCCN1C(=O)c1ccc(C(N)=O)cn1 (stereo not given) -15.15

---

Parameter: Percent Effect. Scope: all listed entries.
System: Mycobacterium tuberculosis
ASSAY_OVERVIEW: Cornell M. t heat shock assay; note: in the data most compounds retested in dose-response had high values
Format: functional, organism-based
Parameters: dose or concentration left out as unconfirmed
The campaign covered roughly 69,000 compounds. About 950 (1.4%) showed an effect of 50% or more. The entries come from a sample that favours strong results as a whole.
State just the number; it will be interpreted in %.

{"COMPOUND": "CC(C)Cc1cc(NC(=O)c2ccccc2)n(C)n1", "UNITS_LABEL": "%", "DATA_VALUE": 19.61}
{"COMPOUND": "Cc1cccc(CN2C[C@@H](C)[C@@]3(CCN(CC(=O)N(C)C)C3=O)C2)c1.O=C(O)C(F)(F)F", "UNITS_LABEL": "%", "DATA_VALUE": -6.766}
{"COMPOUND": "CCOc1cccc2c1OCC(=O)N(c1ccc3c(c1)OCCO3)C2", "UNITS_LABEL": "%", "DATA_VALUE": 11.44}
{"COMPOUND": "Clc1ccc(OCCNC2(c3ccc(Br)cc3)CCOCC2)cc1", "UNITS_LABEL": "%", "DATA_VALUE": 73.72}
{"COMPOUND": "COCCNc1nc2c(c(NCCc3cccs3)n1)CCNCC2", "UNITS_LABEL": "%", "DATA_VALUE": 55.02}
{"COMPOUND": "CCNC(=O)NCc1ccccc1NS(=O)(=O)c1ccccc1", "UNITS_LABEL": "%", "DATA_VALUE": 35.07}

State, in one line, measured Percent Effect of CC(C)c1cc(C(=O)N2C[C@H]3CC[C@@H]2CN(Cc2cscn2)C3)no1 37.62

State, in one line, measured Percent Effect of c1csc(CCNc2nc(-c3ccncc3)nc3c2CCNCC3)c1 10.45

State, in one line, measured Percent Effect of CN(C)S(=O)(=O)c1ccc(-c2nc(C#N)c(NC3CC3)o2)o1 78.01

State, in one line, measured Percent Effect of C[S+]([O-])c1nncn1CC(=O)c1ccc(OC(F)F)cc1 (configuration not stated) 27.46

State, in one line, measured Percent Effect of CCOc1ccc(C(=O)CC(SC2CCCCC2)C(=O)O)cc1 (configuration not stated) 28.66

State, in one line, measured Percent Effect of CCOCCNC1(c2ccc(Cl)cc2)CCOCC1 12.33

State, in one line, measured Percent Effect of CC(C)(C)c1cc(CN2C[C@H]3CC[C@@H]2CN(Cc2cscn2)C3)n[nH]1 92.4
